Molecular target: T1, wild type rat TAP1/TAP2a complex (rat) (UniProt P36370)
T1 sequence (P36370 whole entry, looked up): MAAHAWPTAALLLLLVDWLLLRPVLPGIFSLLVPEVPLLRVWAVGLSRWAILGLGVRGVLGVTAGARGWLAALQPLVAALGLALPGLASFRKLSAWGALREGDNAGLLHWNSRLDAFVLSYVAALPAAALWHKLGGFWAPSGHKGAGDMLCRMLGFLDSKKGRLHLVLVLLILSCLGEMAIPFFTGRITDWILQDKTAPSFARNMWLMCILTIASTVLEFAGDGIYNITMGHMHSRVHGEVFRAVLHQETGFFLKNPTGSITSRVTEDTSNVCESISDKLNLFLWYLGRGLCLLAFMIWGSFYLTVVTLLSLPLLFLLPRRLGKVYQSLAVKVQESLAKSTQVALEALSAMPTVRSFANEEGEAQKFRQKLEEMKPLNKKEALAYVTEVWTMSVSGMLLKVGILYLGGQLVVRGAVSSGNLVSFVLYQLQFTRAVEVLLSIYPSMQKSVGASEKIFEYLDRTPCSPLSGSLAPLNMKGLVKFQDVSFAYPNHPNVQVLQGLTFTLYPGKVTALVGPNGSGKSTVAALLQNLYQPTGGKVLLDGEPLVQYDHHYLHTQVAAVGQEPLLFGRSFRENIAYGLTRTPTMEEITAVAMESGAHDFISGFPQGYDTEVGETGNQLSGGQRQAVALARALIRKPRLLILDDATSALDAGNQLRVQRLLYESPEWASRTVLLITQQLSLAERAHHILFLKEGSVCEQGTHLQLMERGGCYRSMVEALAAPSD
T1 sequence (P36372 whole entry, looked up): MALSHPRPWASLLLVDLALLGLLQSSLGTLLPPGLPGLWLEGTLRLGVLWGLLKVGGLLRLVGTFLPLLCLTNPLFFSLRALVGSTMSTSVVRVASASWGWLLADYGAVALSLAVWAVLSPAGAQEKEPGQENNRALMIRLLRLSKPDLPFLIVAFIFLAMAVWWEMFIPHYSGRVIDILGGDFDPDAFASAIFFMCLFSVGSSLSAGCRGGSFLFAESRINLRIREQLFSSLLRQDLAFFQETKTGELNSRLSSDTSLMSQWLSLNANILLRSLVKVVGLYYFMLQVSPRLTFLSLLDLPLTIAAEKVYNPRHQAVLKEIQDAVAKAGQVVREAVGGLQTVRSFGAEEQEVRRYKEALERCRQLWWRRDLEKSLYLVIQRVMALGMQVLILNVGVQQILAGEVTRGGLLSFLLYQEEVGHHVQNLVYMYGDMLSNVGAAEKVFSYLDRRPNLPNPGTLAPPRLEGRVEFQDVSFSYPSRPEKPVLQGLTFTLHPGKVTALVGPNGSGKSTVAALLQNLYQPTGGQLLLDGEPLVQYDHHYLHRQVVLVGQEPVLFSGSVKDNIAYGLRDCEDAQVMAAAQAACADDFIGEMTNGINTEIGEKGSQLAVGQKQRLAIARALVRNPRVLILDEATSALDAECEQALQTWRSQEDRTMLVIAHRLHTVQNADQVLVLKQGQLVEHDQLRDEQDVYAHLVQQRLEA
Assay: cross-linking
pIC50: −log10 of the molar value.
quantity: pIC50

Query: # pIC50 lookup, item TVDNKTAYR […, unlabeled competitor peptide]
Reply: < 5.70
